All figures here come from PubChem BioAssay (NCATS).

TEST METHOD NOTES: Cellular Toxicity (caspase-3) Renal Proximal Tubule (AID 667);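 also: cells exposed to compound for 16 hours at 37 °C before detection; 0% = DMSO basal and 100% = 10 µM staurosporine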
CONDITIONS USED: renal proximal tubule cells; series mostly up to 91.7 µM
From the text: NIH Chemical Genomics Center [NCGC] NIH Molecular Libraries Screening Centers Network [MLSCN] National Institutes of Environmental Health Sciences [NIEHS] National Toxicology Program [NTP] We have developed a 1536-well cell-based assay for quantitative high throughput screening (qHTS) against a number of cell lines to determine in vitro caspase 3/7 activity of small molecules. […] 8. Detection; Luminescence; Viewlux plate reader […]
Activity calls are given as the source filed them. Calls follow the shape of the dose curve; as a rule, active = well fitted activation curve with a large enough effect; inconclusive = small, poorly fitted or top-dose-only effect, or effect the other way; inactive = flat fitted curve, though single readings scatter.
MEASUREMENT NAME: outcome

[[record]]
smiles = "Cc1cc(-c2cc(C)c(N)c(C)c2)cc(C)c1N"
observed_result = "inactive"

[[record]]
smiles = "CN(C)c1ccc(N=Nc2ccccc2)cc1"
observed_result = "inactive"

[[record]]
smiles = "c1ccc(Nc2ccc(Nc3ccccc3)cc2)cc1"
observed_result = "inactive"


----------
TARGET SYSTEM: Nuclear receptor subfamily 1 group I member 2 (Rattus norvegicus)
TEST METHOD NOTES: qHTS assay for small molecule activators of the rat pregnane X receptor (rPXR) signaling pathway (AID 651751); also: 0% is about no effect
CONDITIONS USED: rPXR reporter cells, luciferase (One-Glo), 24 h
MEASUREMENT NAME: max response (%)
Kindly provide the numeric value in % only, without the unit symbol.

Below, 10 molecules whose answers are already recorded.
[[record]]
molecule = "Cc1ccccc1[N+](=O)[O-]"
target_system = "Nuclear receptor subfamily 1 group I member 2 (Rattus norvegicus)"
observed_result = -2.44

[[record]]
molecule = "CCOS(C)(=O)=O"
target_system = "Nuclear receptor subfamily 1 group I member 2 (Rattus norvegicus)"
observed_result = 1.86

[[record]]
molecule = "C(CCOCC1CO1)COCC1CO1 (centres undefined)"
target_system = "Nuclear receptor subfamily 1 group I member 2 (Rattus norvegicus)"
observed_result = 2.78

[[record]]
molecule = "CCCCCC[N+](=O)[O-]"
target_system = "Nuclear receptor subfamily 1 group I member 2 (Rattus norvegicus)"
observed_result = 1.74

[[record]]
molecule = "C=C(Cl)CSC(=S)N(CC)CC"
target_system = "Nuclear receptor subfamily 1 group I member 2 (Rattus norvegicus)"
observed_result = 1.65

[[record]]
molecule = "O=NN1CCCCC1"
target_system = "Nuclear receptor subfamily 1 group I member 2 (Rattus norvegicus)"
observed_result = -1.74

[[record]]
molecule = "O=Cc1ccc2c(c1)OCO2"
target_system = "Nuclear receptor subfamily 1 group I member 2 (Rattus norvegicus)"
observed_result = 2.27

[[record]]
molecule = "CCCCOC(=O)c1ccccc1N"
target_system = "Nuclear receptor subfamily 1 group I member 2 (Rattus norvegicus)"
observed_result = -1.8

[[record]]
molecule = "Oc1cccc(Cl)c1"
target_system = "Nuclear receptor subfamily 1 group I member 2 (Rattus norvegicus)"
observed_result = 1.59

[[record]]
molecule = "CCCBr"
target_system = "Nuclear receptor subfamily 1 group I member 2 (Rattus norvegicus)"
observed_result = -1.34


Query Cl/C=C/Cl yields max response of -3.34

Query c1ccoc1 yields max response of 3.47

Query O=C(O)CCl yields max response of 9.97

Query C=CC#N yields max response of -2.96

Query CC(C)CON=O yields max response of 4.86

Query Clc1cccc2ccccc12 yields max response of 3.21

Query OCCBr yields max response of -0.978

Query Nc1ccc(Cl)c(Cl)c1 yields max response of 0.573

Query O=S(=O)(O)F yields max response of 0.583

Query N#CC(O)c1ccccc1 (centres undefined) yields max response of 0.679

Query ClC=CCl yields max response of -4.21

----------
TARGET SYSTEM: Lysosomal acid glucosylceramidase (Homo sapiens) (UniProt P04062)
Sequence (P04062 whole entry, looked up): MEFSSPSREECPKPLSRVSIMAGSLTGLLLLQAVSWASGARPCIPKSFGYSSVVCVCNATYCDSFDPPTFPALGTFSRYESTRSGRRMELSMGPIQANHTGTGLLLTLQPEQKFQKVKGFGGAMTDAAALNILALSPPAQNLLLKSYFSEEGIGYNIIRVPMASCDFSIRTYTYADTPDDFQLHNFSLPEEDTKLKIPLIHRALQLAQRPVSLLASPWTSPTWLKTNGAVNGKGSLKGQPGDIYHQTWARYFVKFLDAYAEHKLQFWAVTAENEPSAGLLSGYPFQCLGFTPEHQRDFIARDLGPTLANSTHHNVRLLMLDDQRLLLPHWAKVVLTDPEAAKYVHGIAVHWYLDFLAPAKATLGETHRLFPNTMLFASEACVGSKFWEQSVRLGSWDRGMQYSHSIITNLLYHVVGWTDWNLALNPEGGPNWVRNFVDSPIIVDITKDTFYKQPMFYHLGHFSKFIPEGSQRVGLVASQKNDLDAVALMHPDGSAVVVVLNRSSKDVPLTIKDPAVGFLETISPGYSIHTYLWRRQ
TEST METHOD NOTES: Glucocerebrosidase-p2 (AID 348); also: potency is read from the fitted curve at half-maximal effect
CONDITIONS USED: purified GBA, blue fluorogenic substrate, 40 min
Calls of active or inactive are those of the source. Rule as the data show it: active = potency below about 10 µM; inactive = the rest.
Use one of these outcomes when replying: Y (active), N (inactive)

See these solved cases before continuing.
[[record]]
compound = "O=C(O)C[C@H]1OCC=C2CN3CC[C@]45c6ccccc6N[C@@H]4[C@H]1[C@H]2C[C@H]35"
class = "N"

[[record]]
compound = "FC(F)(F)c1nc2ccc(SSc3ccc4nc(C(F)(F)F)[nH]c4c3)cc2[nH]1"
class = "N"

[[record]]
compound = "Nc1nc(N)c(N=Nc2ccc([As](=O)(O)O)c(O)c2)c(N)n1"
class = "N"


[Q] Hi team, can someone confirm the assay call for C[C@@]12CC[C@H](O[C@@H]3O[C@H](CO)[C@@H](O)[C@H](O)[C@@H]3O)C[C@@H]1CC[C@H]1[C@H]2CC[C@@]2(C)[C@@H](C3=CCOC3=O)CC[C@]12O ?
[A] N

----------
Tested on: HIV-1 nucleocapsid protein NCp7 (binding to TG oligonucleotide)
TEST METHOD NOTES: HIV Nucleocapsid (AID 346);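 also: potency is read from the fitted curve at half-maximal effect; potency is for inhibitors that block NC binding and lower polarization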
CONDITIONS USED: HIV-1 NC / fluorescein-TGTGTGTG probe, fluorescence polarization
Activity calls are given as the source filed them. The rule behind the calls is not given here.
Use one of these outcomes when replying: yes (active), no (inactive)

[Q] Hi team, can someone confirm the assay call for COc1ccc(NC(=O)N2CC3(CCNCC3)C2)cc1 ?
[A] no

[Q] Hi team, can someone confirm the assay call for COCCNc1ncnc2ccc(-c3c(C)noc3C)cc12 ?
[A] no

[Q] Hi team, can someone confirm the assay call for COCCn1c(=O)c(-c2cc(F)cc(F)c2)nc2cnc(Nc3cccc(OC)c3)nc21 ?
[A] yes

[Q] Hi team, can someone confirm the assay call for COCCn1c(=O)cnc2cnc(Oc3cccc(Cl)c3)nc21 ?
[A] no

[Q] Hi team, can someone confirm the assay call for O=C(Nc1cccc(F)c1)N1CC[C@@]2(CCCN(C(=O)c3ccncc3)C2)C1 ?
[A] no

[Q] Hi team, can someone confirm the assay call for N#CCCn1c(=O)c(-c2cccs2)nc2cnc(Oc3cccc(Cl)c3)nc21 ?
[A] no

----------
TEST METHOD NOTES: qHTS assay for small molecule disruptors of the mitochondrial membrane potential - 1 hr assay (AID 651754); also: % is scaled to controls: 0 for no effect and ±100 for the full control effect; nearly all actives have a fitted effect of over 35% in size
CONDITIONS USED: series mostly up to 92.2 µM
Inconclusive results are not listed. Calls of active or inactive are those of the source. Calls come from the whole dose curve.
Use one of these outcomes when replying: 1.0 = active, 0.0 = inactive

See these solved cases before continuing.
[[record]]
compound = "O=[N+]([O-])c1cccc2c([N+](=O)[O-])cccc12"
class = 0.0

[[record]]
compound = "O=S(=O)(O)F"
class = 0.0


[Q] Hi team, can someone confirm the assay call for CC(C)[C@]12CC(=O)[C@H](C)[C@H]1C2 ?
[A] 0.0

[Q] Hi team, can someone confirm the assay call for CCNCC ?
[A] 0.0

[Q] Hi team, can someone confirm the assay call for CCOC(=O)CC(SP(=O)(OC)OC)C(=O)OCC (stereo unspecified) ?
[A] 0.0

[Q] Hi team, can someone confirm the assay call for S=c1[nH]c2ccccc2[nH]1 ?
[A] 0.0

[Q] Hi team, can someone confirm the assay call for ClCC(Cl)CCl ?
[A] 0.0

[Q] Hi team, can someone confirm the assay call for Cl/C=C/CCl ?
[A] 0.0

----------
TEST METHOD NOTES: AP1 Signaling Pathway (AID 357);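 also: ME-180 reporter cells stimulated with EGF at its EC50 level; % is scaled to controls: 0 for no effect and ±100 for the full control effect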
CONDITIONS USED: ME-180 (cervical carcinoma) AP-1-bla reporter, EGF-induced, beta-lactamase ratio, 5 h; at 7.69 µM (top of the series) unless noted
Records with an inconclusive call do not appear. Calls of active or inactive are those of the source. Calls follow the shape of the dose curve; as a rule, active = well fitted curve in either direction with a large enough effect (not every such curve was filed as active); inconclusive = small, poorly fitted or top-dose-only effect, or another doubt; inactive = flat fitted curve, though single readings scatter.
Reported values of activity change, negative = inhibition for individual entries

Below, 3 compounds whose answers are already recorded.
[[record]]
compound = "C[C@@]12CC[C@H]3[C@@H](CC[C@H]4C[C@@H](O)CC[C@]43C)[C@H]1CC[C@@H]2C(=O)C[C@H](O)C(F)(F)F"
measurement_name = "activity change, negative = inhibition"
observed_result = "5.97% (inactive)"

[[record]]
compound = "NNc1nncn1N"
measurement_name = "activity change, negative = inhibition"
observed_result = "17.5% (inactive)"

[[record]]
compound = "Nc1nnnn1CCO"
measurement_name = "activity change, negative = inhibition"
observed_result = "7.2% (inactive)"


Query O=C(O)[C@H]1CCN1 yields activity change, negative = inhibition of -3.07% [at 38 µM] (inactive)

Query CC1(C)CCC(C)(C)c2c1ccc(O)c2Cc1c(O)ccc2c1C(C)(C)CCC2(C)C yields activity change, negative = inhibition of -8.54% (inactive)

Query CO[C@@H]([CH2][Hg])CN1C(=O)c2ccccc2S1(=O)=O.Cn1c(=O)c2nc[nH]c2n(C)c1=O yields activity change, negative = inhibition of 12.7% (inactive)

Query Cc1ccc(S(=O)ON2CCC(C(=O)O)(c3ccccc3)CC2)cc1 (stereo unspecified) yields activity change, negative = inhibition of -1.29% (inactive)

Query NC(=O)c1ccc(C(=O)Nc2ccc([As](=O)(O)O)cc2)cc1 yields activity change, negative = inhibition of -1.92% (inactive)
